assay: log P by HPLC on a reversed-phase column (C 18), EEC Directive 79/831 Annex V.A8; format: physicochemical; settings: Table 1; HPLC C 18, 40° C., 0.1% aqueous formic acid and acetonitrile; several values = mixture of 2 or more isomers
Entries and their measured logP follow.
Measured Attribute: logP

>  <Compound>
O=C(c1ccsc1I)N(Cc1cc(Cl)ccc1C1=CCCC1)C1CC1 [I.21]

>  <Measured Attribute>
logP

>  <Result>
5.36

$$$$
>  <Compound>
Cn1nc(C(F)F)c(C(=O)N(Cc2cc(Cl)ccc2C2=CCCCCC2)C2CC2)c1F [I.54]

>  <Measured Attribute>
logP

>  <Result>
5.31

$$$$
>  <Compound>
Cn1nc(C(F)F)c(C(=O)N(Cc2c(C3=CCCC3)ccc(F)c2F)C2CC2)c1F [I.19]

>  <Measured Attribute>
logP

>  <Result>
4.11

$$$$

----------
experiment: log P by HPLC on a reversed-phase column (C 18), EEC Directive 79/831 Annex V.A8; assay type: physicochemical; details: Table 1; HPLC C 18, 40° C., 0.1% aqueous formic acid and acetonitrile; several values = mixture of 2 or more isomers
Note to self: logP under 5 means Y, ties and anything higher get N.

>  <Compound>
Cn1cc(C(=O)N(Cc2cc(Cl)ccc2C2=CCCCCC2)C2CC2)c(C(F)F)c1 [I.55]

>  <Category Label>
N

$$$$
>  <Compound>
Cn1cc(C(=O)N(Cc2ccccc2C2=CCCCCC2)C2CC2)c(C(F)F)n1 [I.49]

>  <Category Label>
Y

$$$$
>  <Compound>
O=C(c1ccsc1I)N(Cc1ccccc1C1=CCCC1)C1CC1 [I.6]

>  <Category Label>
Y

$$$$
>  <Compound>
Cn1cc(C(=O)N(Cc2ccccc2C2=CCCC2)C2CC2)c(C(F)F)n1 [I.2]

>  <Category Label>
Y

$$$$
>  <Compound>
Cn1nc(C(F)F)c(C(=O)N(Cc2ccccc2C2=CCCC2)C2CC2)c1Cl [I.4]

>  <Category Label>
Y

$$$$
>  <Compound>
Cn1nc(C(F)F)c(C(=O)N(Cc2cc(Cl)ccc2C2=CCCC2)C2CC2)c1Cl [I.23]

>  <Category Label>
Y

$$$$
>  <Compound>
Cn1cc(C(=O)N(Cc2cc(C3=CCCC3)ccc2Cl)C2CC2)c(C(F)F)n1 [I.10]

>  <Category Label>
Y

$$$$
>  <Compound>
Cn1nc(C(F)F)c(C(=S)N(Cc2cc(Cl)ccc2C2=CCCCC2)C2CC2)c1F [I.43]

>  <Category Label>
N

$$$$
